src = patent US20120095055A1

# ASSAY_TARGET: human GR (Homo sapiens, UniProt P04150)
# Construct: naturally expresses the human GR; endogenous in cells
# Sequence (P04150 1-777): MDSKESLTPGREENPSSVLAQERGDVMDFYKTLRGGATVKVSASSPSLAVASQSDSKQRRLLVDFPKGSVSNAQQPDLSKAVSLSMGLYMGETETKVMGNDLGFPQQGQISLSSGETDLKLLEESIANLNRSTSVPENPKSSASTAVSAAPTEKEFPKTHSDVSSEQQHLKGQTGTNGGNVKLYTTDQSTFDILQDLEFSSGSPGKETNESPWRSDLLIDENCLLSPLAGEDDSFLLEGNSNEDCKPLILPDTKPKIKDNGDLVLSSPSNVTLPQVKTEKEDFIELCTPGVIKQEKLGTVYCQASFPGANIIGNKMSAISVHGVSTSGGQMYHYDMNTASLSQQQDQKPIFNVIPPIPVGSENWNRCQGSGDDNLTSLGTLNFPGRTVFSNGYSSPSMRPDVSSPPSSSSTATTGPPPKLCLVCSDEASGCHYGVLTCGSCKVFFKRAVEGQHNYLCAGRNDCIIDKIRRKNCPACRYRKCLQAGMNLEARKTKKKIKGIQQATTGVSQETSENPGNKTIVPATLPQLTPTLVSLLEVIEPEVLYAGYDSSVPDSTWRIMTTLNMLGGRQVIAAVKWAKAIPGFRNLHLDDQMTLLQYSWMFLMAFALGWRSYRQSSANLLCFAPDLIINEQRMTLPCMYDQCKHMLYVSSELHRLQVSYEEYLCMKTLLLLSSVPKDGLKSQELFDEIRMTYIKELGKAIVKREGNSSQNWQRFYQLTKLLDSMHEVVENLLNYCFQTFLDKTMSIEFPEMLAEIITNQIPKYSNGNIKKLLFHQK
# PROCEDURE_DETAILS: Transrepression Assay (GITAR), TNFα-β-lactamase reporter in U937 cells
# Format: cell-based
# CONDITION_NOTES: U-937, activity repressed by 100 nM dexamethasone set as 100%
Below is a list of entries, each paired with its recorded Emax value.
QUANTITY_MEASURED: Emax (%)

[[record]]
compound = "C[C@]12Cc3cnn(-c4ccc(F)cc4)c3C=C1CC[C@@]2(CO)CC(O)c1ccncc1 (single isomer, unassigned) [Example 17a]"
quantity_measured = "Emax"
val = 86.1

[[record]]
compound = "C[C@]12Cc3cnn(-c4ccc(F)cc4)c3C=C1CC[C@@]2(CO)CC(O)c1cccnc1 (single isomer, unassigned) [Example 15a]"
quantity_measured = "Emax"
val = 87.7

[[record]]
compound = "C[C@]12Cc3cnn(-c4ccc(F)cc4)c3C=C1CC[C@@]2(CO)CC(O)C1CC1 (single isomer, unassigned) [Example 20a]"
quantity_measured = "Emax"
val = 79.9

[[record]]
compound = "C[C@]12Cc3cnn(-c4ccc(F)cc4)c3C=C1CC[C@@]2(CO)CC(O)c1cc(F)cc(Cl)c1 (single isomer, unassigned)"
quantity_measured = "Emax"
val = 104

[[record]]
compound = "CC(O)(C[C@]1(CO)CCC2=Cc3c(cnn3-c3ccc(F)cc3)C[C@@]21C)c1cccnc1 (single isomer, unassigned) [Example 25a]"
quantity_measured = "Emax"
val = 61.3

[[record]]
compound = "C[C@]12Cc3cnn(-c4ccc(F)cc4)c3C=C1CC[C@@]2(CO)CC(O)C(F)(F)F (single isomer, unassigned) [Example 28a]"
quantity_measured = "Emax"
val = 81.2

[[record]]
compound = "CC(C)C(O)C[C@]1(CO)CCC2=Cc3c(cnn3-c3ccc(F)cc3)C[C@@]21C (single isomer, unassigned) [Example 14a]"
quantity_measured = "Emax"
val = 82.2

[[record]]
compound = "C[C@]12Cc3cnn(-c4ccc(F)cc4)c3C=C1CC[C@@]2(CO)CC1OC(=O)c2ccccc21 (single isomer, unassigned) [Example 12a]"
quantity_measured = "Emax"
val = 78.8

[[record]]
compound = "C[C@]12Cc3cnn(-c4cccc(F)c4)c3C=C1CC[C@@]2(CO)CC(O)c1cccnc1 (single isomer, unassigned) [Example 27a]"
quantity_measured = "Emax"
val = 64.2

[[record]]
compound = "C[C@]12Cc3cnn(-c4ccc(F)cc4)c3C=C1CC[C@@]2(CO)CC(O)c1ncccc1F (single isomer, unassigned) [Example 10a]"
quantity_measured = "Emax"
val = 89.2

[[record]]
compound = "C[C@]12Cc3cnn(-c4ccc(F)cc4)c3C=C1CC[C@@]2(CO)CC(O)c1cccc(Cl)c1 (some centres unmarked)"
quantity_measured = "Emax"
val = 89.9


---

# ASSAY_TARGET: human GR (Homo sapiens, UniProt P04150)
# Construct: naturally expresses the human GR; endogenous in cells
# PROCEDURE_DETAILS: Trans-Activation Modulation of Glucocorticoid Receptor Assay (GRAMMER), MMTV-LUC reporter in A549 cells
# Format: cell-based
# CONDITION_NOTES: inflection point (IP), MMTV-LUC reporter, read-out: Transactivation A549 Cells GRAMMER IP
pEC50: −log10 of the molar value.
QUANTITY_MEASURED: pEC50

[[record]]
compound = "C[C@]12Cc3cnn(-c4ccc(F)cc4)c3C=C1CC[C@@]2(CO)CC(O)c1cccnc1 (single isomer, unassigned) [Example 15b]"
val = 6.83

[[record]]
compound = "C[C@]12Cc3cnn(-c4ccc(F)cc4)c3C=C1CC[C@@]2(CO)CC(O)c1cc(F)cc(Cl)c1 (single isomer, unassigned) [Example 6a]"
val = 7.52

[[record]]
compound = "Cc1ccc(C(O)C[C@]2(CO)CCC3=Cc4c(cnn4-c4ccc(F)cc4)C[C@@]32C)cc1 (single isomer, unassigned) [Example 2a]"
val = 6.31

[[record]]
compound = "C[C@]12Cc3cnn(-c4ccc(F)cc4)c3C=C1CC[C@@]2(CO)CC1OC(=O)c2ccccc21 (single isomer, unassigned) [Example 12a]"
val = 6.90

[[record]]
compound = "C[C@]12Cc3cnn(-c4ccc(F)cc4)c3C=C1CC[C@@]2(CO)CC(O)c1ccccn1 (single isomer, unassigned) [Example 1a]"
val = 8.25

[[record]]
compound = "C[C@]12Cc3cnn(-c4ccc(F)cc4)c3C=C1CC[C@@]2(CO)CC(O)C1CCCCC1 (single isomer, unassigned) [Example 18a]"
val = 7.65

[[record]]
compound = "Cc1ccc(C(O)C[C@]2(CO)CCC3=Cc4c(cnn4-c4ccc(F)cc4)C[C@@]32C)nc1 (stereo partly shown) [Example 16]"
val = 7.74

[[record]]
compound = "C[C@]12Cc3cnn(-c4cccc(F)c4)c3C=C1CC[C@@]2(CO)CC(O)c1ccccn1 (single isomer, unassigned) [Example 19b]"
val = 7.02

[[record]]
compound = "C[C@]12Cc3cnn(-c4cccc(F)c4)c3C=C1CC[C@@]2(CO)CC(O)c1cccnc1 (single isomer, unassigned) [Example 27a]"
val = 6.45

[[record]]
compound = "C[C@]12Cc3cnn(-c4ccc(F)cc4)c3C=C1CC[C@@]2(CO)CC(O)C(F)(F)F (single isomer, unassigned) [Example 28b]"
val = 6.97

[[record]]
compound = "C[C@]12Cc3cnn(-c4ccc(F)cc4)c3C=C1CC[C@@]2(CO)CC(O)C(F)(F)F (single isomer, unassigned) [Example 28a]"
val = 6.97

[[record]]
compound = "C[C@]12Cc3cnn(-c4ccc(F)cc4)c3C=C1CC[C@@]2(CO)CC(O)C1CC1 (single isomer, unassigned) [Example 20a]"
val = 6.73

[[record]]
compound = "Cc1cccc(C(O)C[C@]2(CO)CCC3=Cc4c(cnn4-c4ccc(F)cc4)C[C@@]32C)c1 (single isomer, unassigned) [Example 5b]"
val = 7.63

